Study target: α1G T-type Ca2+ channels (Homo sapiens)
Construct: expressed in transfected cells; host or cells: HEK293 cells stably expressing α1G and Kir2.1
Sequence (O43497 whole entry): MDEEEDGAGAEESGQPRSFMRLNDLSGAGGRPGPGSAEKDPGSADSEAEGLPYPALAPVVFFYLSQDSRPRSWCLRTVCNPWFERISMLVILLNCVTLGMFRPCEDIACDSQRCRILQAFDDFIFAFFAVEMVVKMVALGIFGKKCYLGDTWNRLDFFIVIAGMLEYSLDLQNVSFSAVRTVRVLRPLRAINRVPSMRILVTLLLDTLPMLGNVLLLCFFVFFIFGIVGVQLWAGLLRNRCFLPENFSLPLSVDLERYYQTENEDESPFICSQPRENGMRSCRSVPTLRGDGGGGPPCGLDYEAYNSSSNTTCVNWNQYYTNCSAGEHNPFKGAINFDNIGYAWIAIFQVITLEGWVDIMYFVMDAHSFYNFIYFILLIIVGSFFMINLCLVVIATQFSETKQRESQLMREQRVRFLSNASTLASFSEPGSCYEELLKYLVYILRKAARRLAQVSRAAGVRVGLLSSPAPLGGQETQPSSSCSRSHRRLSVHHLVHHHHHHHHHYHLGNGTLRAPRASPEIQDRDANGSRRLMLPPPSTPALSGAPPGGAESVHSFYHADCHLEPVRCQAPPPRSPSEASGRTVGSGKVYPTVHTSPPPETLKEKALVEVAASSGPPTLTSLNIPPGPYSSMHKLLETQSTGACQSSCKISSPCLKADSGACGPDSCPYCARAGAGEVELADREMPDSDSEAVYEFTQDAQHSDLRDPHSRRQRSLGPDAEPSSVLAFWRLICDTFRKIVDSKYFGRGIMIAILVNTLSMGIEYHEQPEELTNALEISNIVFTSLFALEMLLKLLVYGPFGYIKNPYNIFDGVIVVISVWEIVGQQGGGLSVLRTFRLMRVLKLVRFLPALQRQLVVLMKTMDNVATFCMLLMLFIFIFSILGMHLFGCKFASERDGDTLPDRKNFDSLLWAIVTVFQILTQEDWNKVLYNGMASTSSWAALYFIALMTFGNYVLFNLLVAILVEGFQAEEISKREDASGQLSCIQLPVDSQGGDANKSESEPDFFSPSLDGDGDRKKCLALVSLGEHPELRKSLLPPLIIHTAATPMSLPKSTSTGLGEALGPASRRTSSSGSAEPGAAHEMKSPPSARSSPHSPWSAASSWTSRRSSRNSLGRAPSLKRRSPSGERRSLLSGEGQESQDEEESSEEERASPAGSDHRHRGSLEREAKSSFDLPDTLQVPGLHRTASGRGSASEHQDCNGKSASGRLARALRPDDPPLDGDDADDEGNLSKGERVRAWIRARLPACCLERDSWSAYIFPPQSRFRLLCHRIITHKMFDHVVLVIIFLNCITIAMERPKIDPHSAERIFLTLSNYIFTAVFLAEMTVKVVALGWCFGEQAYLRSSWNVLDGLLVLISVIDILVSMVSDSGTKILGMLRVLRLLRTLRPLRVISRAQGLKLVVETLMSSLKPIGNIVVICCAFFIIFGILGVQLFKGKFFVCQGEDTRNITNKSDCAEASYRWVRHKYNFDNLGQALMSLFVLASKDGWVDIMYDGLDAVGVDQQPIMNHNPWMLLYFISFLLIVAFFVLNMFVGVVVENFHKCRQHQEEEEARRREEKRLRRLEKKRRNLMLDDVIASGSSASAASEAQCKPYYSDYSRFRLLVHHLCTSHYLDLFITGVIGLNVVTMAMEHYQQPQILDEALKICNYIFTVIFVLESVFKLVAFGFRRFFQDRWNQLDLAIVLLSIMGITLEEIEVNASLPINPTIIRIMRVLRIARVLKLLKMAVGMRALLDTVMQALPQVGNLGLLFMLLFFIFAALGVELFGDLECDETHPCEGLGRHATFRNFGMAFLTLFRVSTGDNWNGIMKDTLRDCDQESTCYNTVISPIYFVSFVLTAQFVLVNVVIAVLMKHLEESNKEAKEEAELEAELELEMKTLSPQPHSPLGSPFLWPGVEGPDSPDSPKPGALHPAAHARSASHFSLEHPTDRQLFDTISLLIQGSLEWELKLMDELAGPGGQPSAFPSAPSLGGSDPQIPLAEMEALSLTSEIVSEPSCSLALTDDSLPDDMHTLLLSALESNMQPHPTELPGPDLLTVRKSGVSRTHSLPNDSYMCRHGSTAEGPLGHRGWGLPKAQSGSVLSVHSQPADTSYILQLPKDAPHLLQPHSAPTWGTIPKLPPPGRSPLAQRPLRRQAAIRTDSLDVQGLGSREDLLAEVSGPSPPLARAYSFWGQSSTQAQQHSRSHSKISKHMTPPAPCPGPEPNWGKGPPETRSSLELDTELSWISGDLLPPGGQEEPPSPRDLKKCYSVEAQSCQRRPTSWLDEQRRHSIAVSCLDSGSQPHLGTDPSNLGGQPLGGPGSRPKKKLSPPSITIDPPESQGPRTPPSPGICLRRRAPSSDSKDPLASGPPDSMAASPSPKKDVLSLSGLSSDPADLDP
Assay procedure: Screening of activity against T-type calcium channel with FDSS6000 (fluorescence, KCl-induced [Ca2+]i increase)
Format: cell-based
Condition notes: 10 μM; HEK293 cells expressing α1G and Kir2.1; NA: Not Active; read-out: Inhibitory effect (%) of T-type calcium channel, Inhibition (%)
Consider the following compounds and their measured inhibition at 10 µM readings.
Write the numeric value and append its unit.

Answered examples (3):
CC1CCCCN1CCCNC(=O)c1ccc2c(c1)C(=O)N(Cc1cccc(Cl)c1)C2=O (stereo not shown) [Compound 82]: 46.2%
N#Cc1ccc(CN2C(=O)c3ccc(C(=O)NCCN4CCCC4)cc3C2=O)cc1 [Compound 131]: 0.6%
Cc1cccc(CN2C(=O)c3ccc(C(=O)NCCCN4CCCC4)cc3C2=O)c1 [Compound 102]: 24.8%

// next entry
Form: compound = O=C(NCCN1CCCCC1)c1ccc2c(c1)C(=O)N(Cc1ccc(Cl)cc1)C2=O [Compound 87] ; inhibition at 10 µM = 47.2%
